Target Desc: Torsin-1A (Homo sapiens)
Assay Summary: TOR1A wild-type binding on microarray – cell lysate, small-molecule microarray, lysate, 635/667 nm, primary screen (AID 1149)
Protocol Conditions: COS7 hTOR1A-WT lysate, 635 nm fluorescence, higher = more signal
Cut-off 0.2 on composite z-score, inclusive. At or above means Y; below means N.

[
  {
    "Compound": "COC(=O)[C@@]1(Cc2ccc(OC)cc2)[C@H]2c3cc(C(=O)N(C)C)n(Cc4ccc(C)o4)c3C[C@H]2CN1C(=O)c1ccccc1",
    "Assigned Category": "N"
  }
]

Asked: Reported composite z-score reaches at least 0.2 for CC(C)(C)OC(=O)CC[C@@]1(C(=O)NCC(O)CO)N=C(c2ccc(OCCCO)cc2)O[C@@H]1c1ccccc1CN=[N+]=[N-] (some centres not stated) ?
Given back: Y

Asked: Entry COC(=O)C/C=C/C[C@]1(O)C(=O)N(C)c2ccccc21 : is its composite z-score no less than 0.2?
Given back: Y

Asked: Could you tell me if the measured composite z-score of COCCCNC(=O)[C@@]1(Sc2ccc(C)cc2)CC(=O)N(C2Cc3ccccc3C2)[C@@H]1c1ccc(CO)cc1 reaches 0.2 or more?
Given back: N

Asked: # check: composite z-score of N#Cc1ccc(NN2C(C(O)c3ccc(Br)cc3)C=CC3C(=O)N(c4ccccc4)C(=O)C32)cc1 (configuration not stated) is greater than or equal to 0.2
Given back: Y

Asked: // inclusive: composite z-score at least 0.2? input: COC(=O)C1=CC(CCCO)=CC(c2ccc(CN3CCCC3)cc2)N(Cc2cccc(OC(F)(F)F)c2)C=C1C(=O)OC (configuration not stated)
Given back: Y

Asked: Determine whether this compound has composite z-score no lower than 0.2: CN1C(=O)C2C=CC(C(O)c3cccn3C)N(Nc3ccc([N+](=O)[O-])cc3[N+](=O)[O-])C2C1=O (configuration not stated)
Given back: Y

Asked: Please tell me: is the compound COCCCNC(=O)[C@@H]1c2ccccc2C(=O)N(C(C)C)[C@H]1c1ccc(CO)cc1 at or over 0.2 in terms of composite z-score?
Given back: N

Asked: Hi, just wondering whether C#Cc1cc2ccccc2oc1=O shows composite z-score of 0.2 or higher.
Given back: N

Asked: Does the reported composite z-score for C=CCNC(=O)[C@@H]1[C@H]2C(=O)O[C@H](c3ccccc3)[C@H](c3ccccc3)N2[C@H](c2ccc(OCCO)cc2)[C@@]12C(=O)N(C(=O)OCCOC)c1ccc(C#Cc3ccc(OC)cc3)cc12 fall at or above the 0.2 mark?
Given back: N

Asked: State whether the measured composite z-score reaches 0.2, counting equality as reaching it, for CCOC(=O)C[C@H]1[C@H](OC(=O)c2cc3ccccc3oc2=O)[C@@H](NC(=O)c2ccccc2)c2cc(OCCCO)ccc2N1C(=O)c1ccccc1
Given back: Y

Asked: Is the recorded value of composite z-score equal to or greater than 0.2 for this compound? CCOC(=O)C[C@H]1[C@H](OC(=O)c2cc3ccccc3oc2=O)[C@@H](NC(=O)c2ccc3ccccc3n2)c2cc(OCCCO)ccc2N1C(=O)Cc1ccc(OC)cc1
Given back: N

---

Assay Summary: budding yeast growth changes without added modifier – OD600, strain BY4716, 24 h, basal condition, primary screen (AID 1173)
Protocol Conditions: S. cerevisiae BY4716 growth, OD600, 24 h; higher = more signal, called active from +8 up or from −8 down
The source made the active and inactive calls.
Property Label: z-score

Examples from the recorded data:
[
  {
    "Compound": "CN1C(=O)C2C=CC(C(O)c3cccn3C)N(Nc3ccc([N+](=O)[O-])cc3[N+](=O)[O-])C2C1=O (configuration not stated)",
    "z-score": "1.1 (inactive)"
  },
  {
    "Compound": "Oc1ccc2cc[n+](Cc3cc4c(cc3Br)OCO4)cc2c1",
    "z-score": "-0.72 (inactive)"
  },
  {
    "Compound": "CCC#CCN(Cc1ccccc1Br)[C@H](/C=C/C1CC1)[C@@H](O)Cc1ccccc1",
    "z-score": "-3.06 (inactive)"
  },
  {
    "Compound": "COC(=O)[C@@]1(Cc2ccc(F)cc2)[C@H]2c3cc(C(=O)N4CCCC4)n(CCc4c[nH]c5ccccc45)c3C[C@H]2CN1C(=O)c1ccccc1",
    "z-score": "1.74 (inactive)"
  },
  {
    "Compound": "C=CC[C@@H](OC(=O)Nc1ccc(OC)cc1)c1ccc(O)c(F)c1",
    "z-score": "-16.3 (active)"
  }
]

Entry O=C(c1ccccc1)N1C(=O)[C@]2(Cc3ccccc31)N=C(c1ccc(OCCCO)cc1)O[C@@H]2c1ccccc1 — recorded z-score = 0.964 (inactive)

Notebook: COC(=O)[C@@]1(Cc2ccc(OC)cc2)[C@H]2c3cc(C(=O)N4CCCC4)n(CCc4c[nH]c5ccc(O)cc45)c3C[C@H]2CN1C(=O)c1ccccc1 , z-score read as 0.532 (inactive)
